Test system: liver cancer cell strain Hep G2
assay: In-vitro tumor cell proliferation inhibition, MTT
Type: cell-based, human
test-conditions: 72 hours, read-out: HEPG2 (IC50)
Source text: The object of this assay was to test the inventive compounds for the inhibitory activity of in-vitro tumor cell proliferation. The MTT (tetreamethyl-azo-zole-salt) colorimetric method was used in this assay. […]

# compound, IC50
data = [
    ("c1ccc(Nc2nc3cnc(Nc4ccc(CN5CCOCC5)cc4)nc3n2C2CCCC2)cc1 [Compounds 8-48]", "> 10 µM"),
    ("CN1CCN(c2ccc(Nc3ncc4nc(Nc5ccccc5)[nH]c4n3)cc2)CC1 [Compounds 8-25]", "> 10 µM"),
    ("C#Cc1cccc(Nc2nc3cnc(Nc4ccc(N5CCN(C)CC5)cc4)nc3n2C2CCCC2)c1 [Compounds 8-46]", "> 10 µM"),
    ("CC(C)n1c(Nc2ccccc2)nc2cnc(Nc3ccc(C(=O)NN4CCN(C)CC4)cc3)nc21 [Compound 8-1]", "> 10 µM"),
    ("CN1CCN(c2ccc(Nc3ncc4nc(NCc5ccccc5)n(C5CCCC5)c4n3)cc2)CC1 [Compounds 8-45]", "> 10 µM"),
    ("CC(C)n1c(Nc2ccc(F)c(Cl)c2)nc2cnc(Nc3ccc(C(=O)NN4CCN(C)CC4)cc3)nc21 [Compound 8-2]", "> 10 µM"),
    ("CC(C)n1c(Nc2ccc(OCc3cccc(F)c3)c(Cl)c2)nc2cnc(Nc3ccc(N4CCOCC4)cc3)nc21 [Compounds 8-42]", "> 10 µM"),
    ("CC(C)n1c(Nc2ccccc2)nc2cnc(Nc3ccc(N4CCN(C)CC4)cc3)nc21 [Compounds 8-10]", "4.8 µM"),
    ("CN1CCN(c2ccc(Nc3ncc4nc(Nc5ccccc5)n(C)c4n3)cc2)CC1 [Compounds 8-24]", "> 10 µM"),
    ("CN1CCN(c2ccc(Nc3ncc4nc(Nc5cc(Cl)c(Cl)cc5Cl)n(C5CCCC5)c4n3)cc2)CC1 [Compounds 8-57]", "> 10 µM"),
    ("CN1CCN(c2ccc(Nc3ncc4nc(Nc5cc(Cl)cc(Cl)c5)n(C5CCCC5)c4n3)cc2)CC1 [Compounds 8-54]", "5.98 µM"),
    ("COc1ccc(Nc2nc3cnc(Nc4ccc(N5CCN(C)CC5)cc4)nc3n2C(C)C)cc1 [Compounds 8-18]", "> 10 µM"),
    ("Cc1cccc(Nc2nc3cnc(Nc4ccc(N5CCN(C)CC5)cc4)nc3n2C2CCCC2)c1 [Compounds 8-53]", "> 10 µM"),
    ("CN1CCN(c2ccc(Nc3ncc4nc(Nc5cccc(Cl)c5)n(C5CCCC5)c4n3)cc2)CC1 [Compounds 8-52]", "7.23 µM"),
    ("CC(C)n1c(Nc2ccc(OCc3cccc(F)c3)c(Cl)c2)nc2cnc(Nc3ccc(N4CCN(C)CC4)cc3)nc21 [Compounds 8-19]", "5.42 µM"),
    ("CC(C)n1c(Nc2ccccc2)nc2cnc(Nc3ccc(C(=O)NC4CCN(C)CC4)cc3)nc21 [Compounds 8-9]", "> 10 µM"),
    ("CC(C)n1c(Nc2ccc(C(=O)Nc3cccc(F)c3)cc2)nc2cnc(Nc3ccc(N4CCN(C)CC4)cc3)nc21 [Compounds 8-22]", "> 10 µM"),
    ("CC(C)n1c(NC2CCCCC2)nc2cnc(Nc3ccc(N4CCN(C)CC4)cc3)nc21 [Compounds 8-30]", "> 10 µM"),
    ("C=CC(=O)Nc1cccc(Nc2ncc3nc(Nc4ccccc4)n(C(C)C)c3n2)c1 [Compounds 8-38]", "2.9 µM"),
    ("COc1cccc(Nc2nc3cnc(Nc4ccc(N5CCN(C)CC5)cc4)nc3n2C(C)C)c1 [Compounds 8-17]", "> 10 µM"),
    ("COCCOc1ccc(Nc2ncc3nc(Nc4ccccc4)n(C4CCCC4)c3n2)cc1 [Compounds 8-56]", "> 10 µM"),
    ("CN1CCN(c2ccc(Nc3ncc4nc(Nc5ccc(F)c(Cl)c5)n(C5CCCC5)c4n3)cc2)CC1 [Compounds 8-35]", "4.34 µM"),
    ("CN1CCN(c2ccc(Nc3ncc4nc(Nc5cccc([N+](=O)[O-])c5)n(C5CCCC5)c4n3)cc2)CC1 [Compounds 8-44]", "> 10 µM"),
]
